Test target: T1, CEACAM1 antigen (Sino Biological, Inc.) (UniProt P13688 35-428)
T1 construct: Bought antigen coated on the ELISA plate; construct not described; also called CEACAM1 (CD66a) antigen; CD66a
T1 sequence (looked up): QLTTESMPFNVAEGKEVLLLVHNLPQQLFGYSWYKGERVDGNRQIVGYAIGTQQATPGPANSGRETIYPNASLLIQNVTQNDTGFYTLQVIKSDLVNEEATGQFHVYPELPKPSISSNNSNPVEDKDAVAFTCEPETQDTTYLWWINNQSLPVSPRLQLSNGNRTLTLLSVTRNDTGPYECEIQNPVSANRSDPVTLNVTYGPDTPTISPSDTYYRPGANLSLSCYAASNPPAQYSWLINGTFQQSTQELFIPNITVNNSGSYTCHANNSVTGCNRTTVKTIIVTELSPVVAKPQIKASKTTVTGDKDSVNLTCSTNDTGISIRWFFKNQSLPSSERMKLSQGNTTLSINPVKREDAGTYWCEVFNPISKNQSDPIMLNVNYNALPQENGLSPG
Protocol text: ELISA, coated CEACAM1 100 ng/well, antibody 0.17 ng/ml
Listed here: items and their measured OD 450 nm.
Could you give me the number in OD? Just the number is fine.

Solved entries (count: 3):
recombinant humanized anti-CD66c antibody Protein ID 3043 (Vk8 + VH6) (antibody, human IgG1, V domains shown, also called hu 3043; #71) VH: QVQLVQSGAEVKKPGASMKISCKASGYSFTDYTMNWVKQAPGQNLEWIGLINPFHGGTVSNQRFKVKATLTVDVSTNTAYMELSRLRSDDTAVYYCVRGDPVRHYYALAYWGQGTLVTVSS VL: DIQMTQSPSTLSASVGDRVTITCRASENVYGTLNWYQRKPGKAPKLLIYGATNLADGMPSRFSGSGSGTEYTLTISSLQPDDFATYYCQNVLSAPYTFGGGTKLEIK ... 0.08
recombinant humanized anti-CD66c antibody Protein ID 2938 (Vk5 + VH7) (antibody, human IgG1, V domains shown, also called hu 2938) VH: QVQLVQSGAEVKKPGASMKISCKASGYSFTDYTMNWVRQAPGQGLEWIGLINPFHGGTVSNQRFKVKATLTVDVSTNTAYMELSRLRSDDTAVYYCVRGDPVRHYYALAYWGQGTLVTVSS VL: DIQMTQSPSTLSASVGDRVTITCGASENVYGTLAWYQRKPGKAPKLLIYGATNLADGVPSRFSGSGSGREYTLTISSLQPDDFATYYCQNVLSAPYTFGGGTKLEIK ... 0.04
recombinant humanized anti-CD66c antibody Protein ID 3058 (Vk8 + VH11) (antibody, human IgG1, V domains shown, also called hu 3058; #86) VH: QVQLVQSGAEVKKPGASVKISCKASGYSFTDYTMHWVKQAPGQNLEWIGLINPFGGSTSYAQKFKGRVTMTRDTSTNTAYMELSRLRSDDTAVYYCVRGDPVRHYYALAYWGQGTLVTVSS VL: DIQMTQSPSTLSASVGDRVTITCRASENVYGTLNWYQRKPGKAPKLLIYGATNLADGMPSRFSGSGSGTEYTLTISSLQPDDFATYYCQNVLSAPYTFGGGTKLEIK ... 0.04

Please look at the following binder next.
Exam item: Determine its reported OD 450 nm: anti-CD66c chimeric antibody 8F5 (antibody, human IgG1, V domains shown, also called chimeric 8F5 antibody; chi 8F5) VH: EVQLQQSGPELVKPGASMKISCKASGYSFTDYTMNWVKQSHGKNLEWIGLINPFHGGTVSNQRFKVKATLTVDVSSNTAYMELLSLTSDDSAVYYCVRGDPVRHYYALAYWGQGTSVTVSS VL: DIQMTQSPASLSASVGETVTITCGASENVYGTLNWYQRKQGKSPQLLIYGATNLADGMSSRFSGSGSGRQYSLKISSLHPDDVATYYCQNVLSAPYTFGGGTKLEII
Marked response: 0.08
